system: CCRIS mutagenicity, Ames/micronucleus/aberration tests; test: CCRIS mutagenicity studies; conditions: Test System: Ames Salmonella typhimurium; Strain/Indicator: TA100; Metabolic Activation: None; Method: Preincubation
Activity calls are given as the source filed them. No rule for the calls is given here.
Reply using exactly one outcome from active, inactive

// below: answered molecules
MOLECULE | ASSIGNED CLASS
Oc1ccc(Cc2ccc(O)cc2)cc1 | inactive
CC1=NN(c2ccccc2)C(=O)C1 | inactive
Nc1cc(Cl)nc(C(=O)O)c1Cl | inactive
Oc1cc(Cl)ccc1Oc1ccc(Cl)cc1Cl | inactive
Cc1cnc[nH]1 | inactive
COP(N)(=O)SC (stereo not given) | inactive

Incoming: Please share the test call associated with O.O=C([O-])c1ccccn1.O=C([O-])c1ccccn1.O=C([O-])c1ccccn1.[Cr+3] .
Outgoing: inactive

Incoming: Please share the test call associated with CC(=O)CC(=O)Nc1ccccc1 .
Outgoing: inactive

Incoming: Please share the test call associated with Nc1c(N=Nc2ccc(S(=O)(=O)CCOS(=O)(=O)O)cc2)c(S(=O)(=O)O)cc2cc(S(=O)(=O)O)c(N=Nc3ccc(S(=O)(=O)CCOS(=O)(=O)O)cc3)c(O)c12 .
Outgoing: inactive

Incoming: Please share the test call associated with O=[N+]([O-])c1ccc(Cl)c([N+](=O)[O-])c1 .
Outgoing: active
